- Tested on: MKL-1
- Protocol summary: qHTS assay to identify novel small-molecules to repurpose for Merkel cell carcinoma treatment (AID 1296009); further: nearly all actives have a fitted effect of over 60% in size
- Measurement parameters: MCC and control cell lines, CellTiter-Glo viability, 72 h; series mostly up to 46 µM
Results filed as inconclusive are left out. The source made the active and inactive calls. The call rests on the fitted dose curve; in most records, active means well fitted inhibition curve with a large enough effect; inconclusive means small, poorly fitted or top-dose-only effect; inactive means flat fitted curve, though single readings scatter.
Endpoint name: outcome

Look over these answered cases.
Molecule: CCC1(CC)C(=O)C=CNC1=O
Result: inactive
//
Molecule: CN1C(=O)CCS(=O)(=O)C1c1ccc(Cl)cc1 (stereo not given)
Result: inactive
//
Molecule: CN1CC[C@]23c4c5ccc(O)c4O[C@H]2[C@@H](O)CC[C@H]3[C@H]1C5
Result: inactive
//
Molecule: CCCOC(=O)c1cncn1C(C)c1ccccc1 (stereo not given)
Result: inactive
//
Molecule: NC(=O)CS(=O)C(c1ccccc1)c1ccccc1 (stereo not given)
Result: inactive

Dear colleague, I am looking for the recorded outcome of the following molecule: O=c1oc2ccccc2c(O)c1Cc1c(O)c2ccccc2oc1=O
inactive

Dear colleague, I am looking for the recorded outcome of the following molecule: C=CCC1([C@H](C)CCC)C(=O)NC(=O)NC1=O
inactive

Dear colleague, I am looking for the recorded outcome of the following molecule: C#C[C@]1(O)CC[C@H]2[C@@H]3CCC4=CC(=O)CC[C@]4(C)[C@H]3CC[C@@]21C
inactive

Dear colleague, I am looking for the recorded outcome of the following molecule: CN1C(=O)NC(=O)C(C)(C2=CCCCC2)C1=O (stereo not given)
inactive

Dear colleague, I am looking for the recorded outcome of the following molecule: NC1=NC(=O)C(c2ccccc2)O1 (stereo not given)
inactive

Dear colleague, I am looking for the recorded outcome of the following molecule: Clc1ccc(C(c2ccc(Cl)cc2)C(Cl)(Cl)Cl)cc1
inactive

Dear colleague, I am looking for the recorded outcome of the following molecule: Cc1ncsc1CCCl
inactive

Dear colleague, I am looking for the recorded outcome of the following molecule: COP(=S)(OC)Oc1cc(Cl)c(Cl)cc1Cl
inactive

Dear colleague, I am looking for the recorded outcome of the following molecule: CCCN(CCC)C(=O)Cc1c(-c2ccc(Cl)cc2)nc2ccc(Cl)cn12
inactive

Dear colleague, I am looking for the recorded outcome of the following molecule: CCN(CC)CCc1c[nH]c2ccccc12
inactive

Dear colleague, I am looking for the recorded outcome of the following molecule: C[C@]12CCC(=O)C=C1CC[C@@H]1[C@@H]2CC[C@@]2(C)[C@H]1CC[C@]2(C)O
inactive

Dear colleague, I am looking for the recorded outcome of the following molecule: Nc1nc(N)nc(NC2CC2)n1
inactive

Dear colleague, I am looking for the recorded outcome of the following molecule: CN(C)CCc1c[nH]c2cccc(OP(=O)(O)O)c12
inactive

----------
- Protocol summary: qHTS of pediatric cancer cell lines to identify multiple opportunities for drug repurposing: Primary screen for Rh41 cells (AID 1347108); further: nearly all actives have a fitted effect of over 70% in size
- Measurement parameters: Rh41 rhabdomyosarcoma viability, CellTiter-Glo luminescence, 48 h; series mostly up to 46 µM
Records with an inconclusive call do not appear. Activity calls are given as the source filed them. The call rests on the fitted dose curve; in most records, active means well fitted cell-killing curve with a large enough effect; inconclusive means small, poorly fitted or top-dose-only effect; inactive means no such curve, though single readings can be large or run the other way.
Result category, one only: true (active), false (inactive)

Worked set:
Molecule: CN1CC[C@]23c4c5ccc(O)c4O[C@H]2[C@@H](O)CC[C@H]3[C@H]1C5
Cat: false
//
Molecule: CCC(C)C(C)(COC(N)=O)COC(N)=O (configuration not stated)
Cat: false
//
Molecule: CC(=O)NC1CCSC1=O (configuration not stated)
Cat: false

Please let me know the test result on file for CC[N+]1(CC)CCC(OC(=O)C(O)(c2ccccc2)c2ccccc2)C1 (configuration not stated) .
false

Please let me know the test result on file for C[C@]12CCC(=O)C=C1CC[C@@H]1[C@H]3CC[C@](C)(O)[C@@]3(C)CC[C@@H]12 .
true

Please let me know the test result on file for CN1C(=O)COc2c(C(=O)NC3CN4CCC3CC4)cc(Cl)cc21 (configuration not stated) .
false

----------
- Measurement parameters: Ebola virus entry assay, blue channel fluorescence
The source made the active and inactive calls. Where a SMILES comes first, the peptide text is derived from it. Bridges are numbered along the chain shown (N, C = ends). [ ]: non-standard residue; d: D form. The star is where a group is joined. Dab(CH2SO3H) = N[C@@H](CCNCS(=O)(=O)O)C(=O)O; X1 = CC[C@@H](C)CCCCC(=O)*; Dab = NCC[C@H](N)C(=O)O
Result category, one only: 1 = active, -1 = inactive

Molecule: CCOC(=O)C1=C(COCCN)NC(C)=C(C(=O)OC)C1c1ccccc1Cl (centres undefined)
Cat: -1
//
Molecule: Nc1nc(Cl)nc2c1ncn2[C@@H]1O[C@H](CO)[C@@H](O)[C@@H]1F
Cat: -1
//
Molecule: CC=CC1=C(C(=O)O)N2C(=O)[C@H](NC(=O)[C@H](N)c3ccc(O)cc3)[C@@H]2SC1
Cat: -1
//
Molecule: COc1cc(Br)c(C[N+]2(CCOCCC3CCC4CC3C4(C)C)CCOCC2)cc1OC (centres undefined)
Cat: -1
//
Molecule: O=C(O[C@H]1CN2CCC1CC2)N1CCc2ccccc2[C@@H]1c1ccccc1
Cat: 1
//
Molecule: C=CCN1C[C@H](C(=O)N(CCCN(C)C)C(=O)NCC)C[C@@H]2c3cccc4[nH]cc(c34)C[C@H]21
Cat: -1
//
Molecule: Cc1c(N)nc([C@H](CC(N)=O)NC[C@H](N)C(N)=O)nc1C(=O)N[C@H](C(=O)N[C@H](C)[C@@H](O)[C@H](C)C(=O)N[C@H](C(=O)NCCc1nc(-c2nc(C(=O)NCCCCN=C(N)N)cs2)cs1)[C@@H](C)O)[C@@H](O[C@@H]1O[C@@H](CO)[C@@H](O)[C@H](O)[C@@H]1O[C@H]1O[C@H](CO)[C@@H](O)[C@H](OC(N)=O)[C@@H]1O)c1cnc[nH]1
Cat: -1
//
Molecule: CC[C@@H](C)CCCCC(=O)N[C@@H](CCNCS(=O)(=O)O)C(=O)N[C@H](C(=O)N[C@@H](CCNCS(=O)(=O)O)C(=O)N[C@H]1CCNC(=O)[C@H]([C@@H](C)O)NC(=O)[C@H](CCNCS(=O)(=O)O)NC(=O)[C@H](CCNCS(=O)(=O)O)NC(=O)[C@H](CC(C)C)NC(=O)[C@@H](CC(C)C)NC(=O)[C@H](CCNCS(=O)(=O)O)NC1=O)[C@@H](C)O (X1-[Dab(CH2SO3H)]T[Dab(CH2SO3H)][Dab][Dab(CH2SO3H)][dL]L[Dab(CH2SO3H)][Dab(CH2SO3H)]T; lactam 4-C)
Cat: -1

Please let me know the test result on file for CN1C(=O)OC(C)(C)C1=O .
-1

Please let me know the test result on file for Nc1nc(Cl)nc2c1ncn2[C@H]1C[C@H](O)[C@@H](CO)O1 .
-1

Please let me know the test result on file for CC[C@H]1OC(=O)[C@H](C)C(=O)[C@H](C)[C@@H](O[C@@H]2O[C@H](C)C[C@H](N(C)C)[C@H]2O)[C@](C)(OC)C[C@@H](C)C(=O)[C@H](C)[C@H]2N(CCCCn3cnc(-c4cccnc4)c3)C(=O)O[C@]12C .
-1

----------
- Protocol summary: qHTS of pediatric cancer cell lines to identify multiple opportunities for drug repurposing: Primary screen for BT-12 cells (AID 1347101);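 further: plate controls were DMSO for no effect and bortezomib positive control for full effect; nearly all actives have a fitted effect of over 25% in size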
- Measurement parameters: BT-12 viability, CellTiter-Glo luminescence, 48 h; series mostly up to 57.3 µM
Inconclusive results are not listed. The source made the active and inactive calls. Calls come from the whole dose curve; as a rule, active = well fitted cell-killing curve with a large enough effect; inconclusive = small, poorly fitted or top-dose-only effect; inactive = flat fitted curve, though single readings scatter.
Result category, one only: True = active, False = inactive

Compound: Clc1cccc(SC2CCNCC2)n1
Cat: False
//
Compound: CC(=O)NC1CCSC1=O (centres undefined)
Cat: False
//
Compound: CCN[C@@H](C)Cc1ccccc1
Cat: False

Please let me know the test result on file for C[C@@H](N)[C@@H](O)c1ccccc1 .
False

Please let me know the test result on file for Oc1ccc(Cl)cc1 .
False

Please let me know the test result on file for C#C[C@]1(O)CC[C@H]2[C@@H]3CCC4=CC(=O)CC[C@]4(C)[C@H]3CC[C@@]21C .
False

Please let me know the test result on file for CCC(CC)(CNC(=O)CCCO)c1cccc(OC)c1 .
False

Please let me know the test result on file for O=C1OC(c2ccc(O)c(S(=O)(=O)O)c2)(c2ccc(O)c(S(=O)(=O)O)c2)c2c(Br)c(Br)c(Br)c(Br)c21 .
False

Please let me know the test result on file for COP(=S)(OC)Oc1ccc(S(=O)(=O)N(C)C)cc1 .
False

Please let me know the test result on file for C[C@]12CC[C@@H]3c4ccc(OC(=O)N(CCCl)CCCl)cc4CC[C@H]3[C@@H]1CC[C@@H]2O .
False

Please let me know the test result on file for COc1ccc2c(c1OC)C(=O)O[C@H]2[C@@H]1c2cc3c(cc2CCN1C)OCO3 .
False
